Provide the reported one-hybrid fitness for binding parS DNA of each item.
B1: Caulobacter ParB omega fusion; a variant is named by its letters at X, in order, B8GW30 (parent)
chain: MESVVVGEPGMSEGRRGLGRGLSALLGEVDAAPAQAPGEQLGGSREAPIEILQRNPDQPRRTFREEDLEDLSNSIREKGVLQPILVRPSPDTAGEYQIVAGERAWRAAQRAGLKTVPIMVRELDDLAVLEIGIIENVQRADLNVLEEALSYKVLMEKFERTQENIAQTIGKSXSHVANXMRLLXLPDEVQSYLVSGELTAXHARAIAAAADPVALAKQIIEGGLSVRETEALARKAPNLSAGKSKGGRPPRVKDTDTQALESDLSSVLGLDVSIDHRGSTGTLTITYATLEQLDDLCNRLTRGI

Variants of: B1
Test: one-hybrid fitness for binding parS DNA (scaled: cognate 1, non-cognate 0); higher = stronger binding
Settings: with parS DNA site
Whole data set: some 81,000 sequences, median “one-hybrid fitness for binding parS DNA” near -0.17, cut for the highest 2% near 0.51. For the sample, the highest values were picked, then their nearest neighbours and some sequences at random.

Prompt: Data request, read-out one-hybrid fitness for binding parS DNA, for RNTM
Completion: 0.233

Prompt: What value of one-hybrid fitness for binding parS DNA has been reported for the following variant? HSQW
Completion: ≤ 0.2

Prompt: // query one-hybrid fitness for binding parS DNA value for entry LCSR
Completion: ≤ 0.2

Prompt: Which one-hybrid fitness for binding parS DNA is listed for RNTR ?
Completion: ≤ 0.2

Prompt: # one-hybrid fitness for binding parS DNA lookup, item NLKV
Completion: ≤ 0.2

Prompt: Given RAKR , state its recorded one-hybrid fitness for binding parS DNA.
Completion: ≤ 0.2

Prompt: What does the data say about its one-hybrid fitness for binding parS DNA? Entry: RHNQ
Completion: ≤ 0.2

Prompt: I have this variant here, QPYH , and I need its recorded one-hybrid fitness for binding parS DNA.
Completion: ≤ 0.2

Prompt: Can you share its one-hybrid fitness for binding parS DNA? I mean this variant: RMRG
Completion: 0.962

Prompt: Entry RHDT has what one-hybrid fitness for binding parS DNA?
Completion: 0.791

Prompt: Look up one-hybrid fitness for binding parS DNA: STFL
Completion: ≤ 0.2

Prompt: Any idea what one-hybrid fitness for binding parS DNA was measured for RHNT ?
Completion: 0.857

Prompt: Any idea what its one-hybrid fitness for binding parS DNA is? The variant is AACS
Completion: ≤ 0.2

Prompt: Any idea what one-hybrid fitness for binding parS DNA was measured for ASRG ?
Completion: ≤ 0.2

Prompt: Return reported one-hybrid fitness for binding parS DNA; argument: TLTV
Completion: ≤ 0.2

Prompt: Using the record for RNTK , report its one-hybrid fitness for binding parS DNA.
Completion: ≤ 0.2

Prompt: Bench note: what one-hybrid fitness for binding parS DNA did RAVP show?
Completion: ≤ 0.2

Prompt: I have this variant here, NQPG , and I need its recorded one-hybrid fitness for binding parS DNA.
Completion: ≤ 0.2

Prompt: Entry RNTN has what one-hybrid fitness for binding parS DNA?
Completion: 0.357

Prompt: # query: one-hybrid fitness for binding parS DNA of entry RNTP
Completion: ≤ 0.2

Prompt: // returns reported one-hybrid fitness for binding parS DNA for input RWKC
Completion: 0.896

Prompt: Reported one-hybrid fitness for binding parS DNA, variant CPLP : ____
Completion: ≤ 0.2

Prompt: Fill in the blank: the reported one-hybrid fitness for binding parS DNA of WGPD is ____.
Completion: ≤ 0.2

Prompt: Looking for the measured one-hybrid fitness for binding parS DNA of GQHW , can you help?
Completion: ≤ 0.2

Prompt: # input variant: RNTG ; wanted: its one-hybrid fitness for binding parS DNA
Completion: 0.908

Prompt: Which one-hybrid fitness for binding parS DNA reading was recorded for the variant EYRS ?
Completion: ≤ 0.2

Prompt: Sample RMNM — what was its one-hybrid fitness for binding parS DNA?
Completion: 0.351

Prompt: Fill in: one-hybrid fitness for binding parS DNA of YIFC is ___
Completion: ≤ 0.2

Prompt: Entry QLHL has what one-hybrid fitness for binding parS DNA?
Completion: ≤ 0.2

Prompt: For the variant shown here, MEPC , give the reported one-hybrid fitness for binding parS DNA.
Completion: ≤ 0.2

Prompt: GET /values?readout=one-hybrid fitness for binding parS DNA&item= RAKC
Completion: 0.91

Prompt: Requested field: one-hybrid fitness for binding parS DNA. Item: RWKK
Completion: ≤ 0.2

Prompt: Sample LLPK — what was its one-hybrid fitness for binding parS DNA?
Completion: ≤ 0.2
